Consider the following binders and their measured pKd readings.
target: T1, UBCH5B (UniProt P62837 1-147); experiment: ITC; Microcal PEAQ ITC, 25 °C; 75-200 uM Arkadia polypeptide in the cell, 0.75-2 mM UBCH5B from the syringe in 2 uL injections; single site-binding model; settings: both partners purified
T1 construct: UBCH5B, E2 ubiquitin-conjugating enzyme, wild type; 15N-labelled in the NMR titrations; also called E2 enzyme UBCH5B; wt UBCH5B
pKd: −log10 of the molar value.

| Binder | pKd |
| --- | --- |
| Arkadia 119 aa polypeptide (domain or fragment, Cloned into pGEX-4T-1; source: E. coli, purified (GST-trap, thrombin cleavage, Superdex 75 SEC); not shown: GST, N-terminal, cleaved) FRGNFEELIHLEERLGNVNRGASQGTIERCTYPHKYKKVTTDWFSQRKLHCKQDGEEGTEEDTEEKCTICLSILEEGEDVRRLPCMHLFHQVCVDQWLITNKKCPICRVDIEAQLPSES | 5.57 |
| Arkadia RING 68 aa (domain or fragment, Cloned into pGEX-4T-1; also called Ark RING 68aa; Ark 68 aa; source: E. coli, purified (GST-trap, thrombin cleavage, Superdex 75 SEC); not shown: GST, N-terminal, cleaved) KQDGEEGTEEDTEEKCTICLSILEEGEDVRRLPCMHLFHQVCVDQWLITNKKCPICRVDIEAQLPSES | 4.49 |
